experiment: qHTS for differential inhibitors of proliferation of Plasmodium falciparum line W2 (AID 1883); settings: Plasmodium falciparum W2 proliferation inhibition; series mostly up to 28.7 µM;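 further: parasites grown with compound for 72 h before lysis and staining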
Records with an inconclusive call do not appear. Activity calls are given as the source filed them. The call rests on the fitted dose curve; in most records, active means well fitted curve in the direction sought with a large enough effect; inconclusive means small, poorly fitted or top-dose-only effect, or another doubt; inactive means no such curve, though single readings can be large or run the other way.
Hi there, use one of these labels in your reply, thanks! active, inactive

Recorded results for 4 compounds are shown here.
- compound: "COc1ccc2c(c1OC)C(=O)OC2C1c2c(cc3c(c2OC)OCO3)CCN1C (stereo not given)"
  qualitative_label: "active"
- compound: "NC(=NCc1ccc(Cl)c(Cl)c1)NC(=O)c1nc(Cl)c(N)nc1N"
  qualitative_label: "active"
- compound: "CC#C[C@]1(O)CC[C@H]2C3CCC4=CC(=O)CCC4=C3[C@@H](c3ccc(N(C)C)cc3)C[C@@]21C (stereo not given in full)"
  qualitative_label: "active"
- compound: "CN(C)CCCO[C@H]1C([C@H](O)CO)O[C@@H]2OC(C)(C)O[C@@H]21 (stereo not given in full)"
  qualitative_label: "inactive"

Query string: Could you kindly confirm the outcome this assay logged for CN1CCc2c(cc(O)c(O)c2Cl)C(c2cccc(Cl)c2)C1 (stereo not given) ?
Result string: active

Entry source: PubChem BioAssay (NCATS)
